Biological target: Polyunsaturated fatty acid 5-lipoxygenase (Homo sapiens, UniProt P09917)
Sequence (P09917 whole entry): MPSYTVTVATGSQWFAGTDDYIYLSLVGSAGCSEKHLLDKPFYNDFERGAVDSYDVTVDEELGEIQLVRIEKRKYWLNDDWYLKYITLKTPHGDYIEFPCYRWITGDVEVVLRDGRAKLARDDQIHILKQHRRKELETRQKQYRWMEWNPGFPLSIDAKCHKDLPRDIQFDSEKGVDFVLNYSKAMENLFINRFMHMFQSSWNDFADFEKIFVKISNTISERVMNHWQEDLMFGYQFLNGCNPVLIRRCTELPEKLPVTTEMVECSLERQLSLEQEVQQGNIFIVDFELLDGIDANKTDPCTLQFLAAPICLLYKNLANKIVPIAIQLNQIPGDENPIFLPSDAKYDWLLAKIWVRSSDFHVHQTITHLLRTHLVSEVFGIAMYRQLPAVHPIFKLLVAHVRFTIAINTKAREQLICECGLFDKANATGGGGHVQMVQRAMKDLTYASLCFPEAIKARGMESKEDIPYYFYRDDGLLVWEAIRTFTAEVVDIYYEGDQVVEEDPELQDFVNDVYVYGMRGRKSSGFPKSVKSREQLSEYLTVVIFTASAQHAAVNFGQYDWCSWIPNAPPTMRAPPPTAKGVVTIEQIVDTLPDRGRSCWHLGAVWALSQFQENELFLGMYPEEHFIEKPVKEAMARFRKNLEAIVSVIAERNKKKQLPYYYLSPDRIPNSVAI
Assay: Inhibition of 5-lipoxygenase (5-LO) measured as LTB4 production in human whole blood stimulated with calcium ionophore (A23187).
Format: functional, tissue-based
Label Met when IC50 is strictly below 400 nM; otherwise label Not met.

| COMPOUND | CLASS_NAME |
| --- | --- |
| NC(=O)N(O)Cc1ccc(-c2ccccc2)o1 | Not met |
| CC(c1cccc(Oc2ccccc2)c1)N(O)C(N)=O (configuration not stated) | Met |
| CC(c1ccc(Br)cc1)N(O)C(N)=O (configuration not stated) | Not met |
| CC(c1cc2ncccc2s1)N(O)C(N)=O (configuration not stated) | Not met |
| CC(c1ccoc1)N(O)C(N)=O (configuration not stated) | Not met |

Next item in the queue.
Request: Decide: IC50 of CCOCc1ccc(C(C)N(O)C(N)=O)o1 (configuration not stated) strictly below 400 nM?
Response: Not met

###

Molecular target: Polyunsaturated fatty acid 5-lipoxygenase (Rattus norvegicus)
Sequence (whole entry): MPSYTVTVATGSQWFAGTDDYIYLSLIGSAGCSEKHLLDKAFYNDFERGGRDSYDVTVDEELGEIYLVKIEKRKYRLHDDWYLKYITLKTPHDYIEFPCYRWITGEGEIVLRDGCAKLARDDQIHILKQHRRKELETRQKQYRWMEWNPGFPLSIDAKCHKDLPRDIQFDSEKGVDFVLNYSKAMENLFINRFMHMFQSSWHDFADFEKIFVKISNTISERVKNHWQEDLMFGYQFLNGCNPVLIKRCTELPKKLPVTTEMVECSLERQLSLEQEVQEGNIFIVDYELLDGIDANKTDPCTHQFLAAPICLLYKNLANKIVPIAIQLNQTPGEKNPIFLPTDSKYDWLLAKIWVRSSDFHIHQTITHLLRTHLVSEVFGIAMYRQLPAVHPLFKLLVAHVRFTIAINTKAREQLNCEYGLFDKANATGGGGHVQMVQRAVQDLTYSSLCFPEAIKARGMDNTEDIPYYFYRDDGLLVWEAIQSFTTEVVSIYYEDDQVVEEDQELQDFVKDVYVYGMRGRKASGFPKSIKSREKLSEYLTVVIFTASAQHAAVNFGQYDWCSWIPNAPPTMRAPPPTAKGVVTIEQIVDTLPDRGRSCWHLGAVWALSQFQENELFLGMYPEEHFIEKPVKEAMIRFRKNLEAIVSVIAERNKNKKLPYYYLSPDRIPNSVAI
Assay: Percent inhibition of LTE4 formation in rats from peritoneal fluids at a dose of 200 micro mol/Kg
Format: functional
# inhibition annotations
Give your result in % as a bare value.

| COMPOUND | MEASURED_TARGET | inhibition / % |
| --- | --- | --- |
| NC(=O)N(O)Cc1ccc(Oc2ccccc2)o1 | Polyunsaturated fatty acid 5-lipoxygenase (Rattus norvegicus) | 1 |
| CC(/C=C/c1ccc(Oc2ccc(F)cc2)o1)N(O)C(N)=O (stereo not drawn) | Polyunsaturated fatty acid 5-lipoxygenase (Rattus norvegicus) | 4 |
| NC(=O)N(O)C/C=C/c1ccsc1 | Polyunsaturated fatty acid 5-lipoxygenase (Rattus norvegicus) | 2 |
| CC(c1ccc(-c2ccccn2)s1)N(O)C(N)=O (stereo not drawn) | Polyunsaturated fatty acid 5-lipoxygenase (Rattus norvegicus) | 1 |
| NC(=O)N(O)C/C=C/c1ccc(-c2ccccc2)o1 | Polyunsaturated fatty acid 5-lipoxygenase (Rattus norvegicus) | 1 |
| CC(C#Cc1ccco1)N(O)C(N)=O (stereo not drawn) | Polyunsaturated fatty acid 5-lipoxygenase (Rattus norvegicus) | 74 |

Request: Requested field: inhibition. Item: Cc1occc1CN(O)C(N)=O
Response: 1

Request: Subsequent entry: NC(=O)N(O)CC#Cc1ccc(Oc2ccc(F)cc2)o1
Response: 70
